Several publications report pIC50 on UniProt P35968; those values are gathered here.
pIC50: −log10 of the molar value.

O=C(Nc1ccc(Oc2ccnc(NC(=O)C3CC3)c2)nc1)Nc1ccc(Cl)c(C(F)(F)F)c1	8.24
O=C(Nc1ccc(F)c(C(=O)c2ccc3ncc(N4CCNCC4)nc3c2)c1)Nc1ccc(Cl)c(C(F)(F)F)c1	> 7.00
COCCOc1cnc2c(Oc3ccc(NC(=O)c4c(C)n(C)c(C)c(C5=CCCCC5)c4=O)cc3F)ccnc2c1	< 6.52

Form field pIC50, entry `CSc1cccc(CN2C3CC2CN(c2ccc(-c4cc(-c5cnn(C(F)F)c5)cn5ncc(C#N)c45)cn2)C3)n1` : 7.84

GET /value?item= `CCCS(=O)(=O)Nc1ccc(F)c(C(=O)c2c[nH]c3ncc(-c4cnc(N5CCCC5)nc4)cc23)c1F` &field=pIC50 returns ≥ 5.00

Form field pIC50, entry `CC(F)(F)c1ccc(F)c(NC(=O)Nc2cnc(Oc3ccnc(NC(=O)C4CC4)c3)c(F)c2)c1` : 7.90

Record `Fc1ncccc1CNc1ccc(Cc2c[nH]c3ncncc23)c(F)n1` . Reported pIC50: ≥ 5.00

Record `c1ccc(Oc2cnc3[nH]ccc3c2)cc1` . Reported pIC50: ≥ 5.00

Please fill in: pIC50 reported for `O=C(c1c(F)ccc(NS(=O)(=O)CCC(F)(F)F)c1F)c1c[nH]c2ncc(-c3ccc(F)cc3)cc12` = ≥ 5.00

Reported pIC50 of `O=C(c1ccccc1F)c1c[nH]c2ncc(-c3cccnc3)cc12` : ≥ 5.00

Noted for `CCCS(=O)(=O)Nc1ccc(F)c(C(=O)c2c[nH]c3ncc(O)cc23)c1F` : its pIC50 reads ≥ 5.00

The molecule `C=CC(=O)Nc1cc2c(Nc3ccc(Br)cc3F)ncnc2cc1OCCNC(=O)N1CCN(C)CC1` showed pIC50 equal to 6.45

For this molecule ( `CCCS(=O)(=O)Nc1ccc(F)c(C(=O)c2c[nH]c3ncc(-c4c(C)nn(C)c4C)cc23)c1F` ), measured pIC50 is ≥ 5.00

The recorded pIC50 for `O=C(Nc1ccc(OC(F)(F)F)cc1)Nc1ccc(Oc2ccnc(NC(=O)C3CC3)c2)c(F)c1` is 8.28
